Biological target: human collagenase-1 (HFC) (Homo sapiens, UniProt P03956)
Construct: the fibroblast collagenase-1 catalytic domain (HFC) was released; ubiquitin (fusion) (cleaved yes)
Sequence (P03956 100-269 limits assumed): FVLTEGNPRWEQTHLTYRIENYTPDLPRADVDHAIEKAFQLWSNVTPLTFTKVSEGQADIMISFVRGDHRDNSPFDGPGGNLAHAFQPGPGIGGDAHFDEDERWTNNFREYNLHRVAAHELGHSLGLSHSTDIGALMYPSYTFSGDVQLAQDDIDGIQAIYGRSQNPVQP
Test: Inhibition of collagenase-1 (HFC) - fluorogenic MCA peptide substrate hydrolysis
Settings: catalytic domain; Ki,app; MCA peptide substrate 10 μM, pH 7.5, 37° C., 2% DMSO
Description: The catalytic domain of human collagenase-1 was expressed as a fusion protein with ubiquitin in E. coli (see Gehring, E. R., J. Biol. Chem., 1995, 270, 22507, which article is entirely incorporated herein by reference). […] The assay method was based on the hydrolysis of MCA-Pro-Leu-Gly-Leu-DPA-Ala-Arg-NH2 (American Peptide Co.) at 37° C. […] The fluorescence changes were monitored with a Perkin-Elmer LS-50B fluorimeter using an excitation wavelength of 328 nm and an emission wavelength of 393 nm. […]
measure: Ki (µM)
Report the figure in µM without appending any unit label.

Query Ki on human collagenase-1 (HFC) (Homo sapiens, UniProt P03956) for "O=C(O)[C@H]1CCCCN1S(=O)(=O)c1ccc(Oc2ccc(-c3ccccc3)cc2)cc1"
125

Provide value of Ki for this record tested with human collagenase-1 (HFC) (Homo sapiens, UniProt P03956): "O=C(O)[C@H]1CCCCN1S(=O)(=O)c1ccc(Oc2ccc(Br)cc2)cc1"
481

Return Ki measured with human collagenase-1 (HFC) (Homo sapiens, UniProt P03956) given this molecule: "O=C(NO)[C@H]1CCCCN1S(=O)(=O)c1ccc(Oc2ccc(-c3ccccc3)cc2)cc1"
0.0088

Recorded Ki for "CC(C)[C@H](C(=O)NO)N(Cc1cccnc1)S(=O)(=O)c1ccc(Oc2ccc(Br)cc2)cc1" with human collagenase-1 (HFC) (Homo sapiens, UniProt P03956), please?
0.0076

----------
biological target: human collagenase-1 (HFC) (Homo sapiens, UniProt P03956); construct: the fibroblast collagenase-1 catalytic domain (HFC) was released; ubiquitin (fusion) (cleaved yes); assay: Inhibition of collagenase-1 (HFC) - fluorogenic MCA peptide substrate hydrolysis; conditions: catalytic domain; Ki,app; MCA peptide substrate 10 μM, pH 7.5, 37° C., 2% DMSO
measure: pKi
Answer as the number alone; pKi is minus log10 of concentration in mol/L.

// known answers, use as guide
O=C(NO)[C@H]1CCCCN1S(=O)(=O)c1ccc(Oc2ccccc2)cc1 [Example 7]
8.18
CCOP(=O)(CN(CC(=O)NO)S(=O)(=O)c1ccc(Oc2ccccc2)cc1)OCC [Example 4]
7.57
CC(C)[C@H](C(=O)NO)N(Cc1cccnc1)S(=O)(=O)c1ccc(Oc2ccccc2)cc1 [Example 3(b)]
8.22

As a next step, examine the compound that follows.
I would be grateful if you could share the reported pKi for O=C(NO)[C@H]1CCCCN1S(=O)(=O)c1ccc(Oc2ccc(Br)cc2)cc1 [Example 5] .
7.82

----------
molecular target: human gelatinase A (Gel A); assay: Inhibition of gelatinase A (Gel A) - fluorogenic MCA peptide substrate hydrolysis; conditions: catalytic and fibronectin-like portion; Ki,app; MCA peptide substrate 10 μM, pH 7.5, 37° C., 2% DMSO; enzyme 60 pM
measure: pKi
pKi field: float, defined as -log10 of concentration (mol/L).

# example entries with known answers
O=C(NO)[C@H]1CCCCN1S(=O)(=O)c1ccc(Oc2ccc(-c3ccccc3)cc2)cc1
10.85
O=C(O)[C@H]1CCCCN1S(=O)(=O)c1ccc(Oc2ccc(-c3ccccc3)cc2)cc1
7.19
O=C(O)[C@H]1CCCCN1S(=O)(=O)c1ccc(Oc2ccc(Br)cc2)cc1
6.72

Consider now this further molecule.
Which pKi reading was recorded for the molecule "O=C(NO)[C@H]1CCCCN1S(=O)(=O)c1ccc(Oc2ccc(Br)cc2)cc1" ?
10.74
